Values from patent US9023604

- Tested On: T1, CD4 cell surface receptor molecule on peripheral blood mononuclear cells (PBMCs) (human, UniProt P01730 26-458)
- T1 construct: whole, on cells; also called CD4 receptor molecule
- Measurement Notes: flow cytometry, PBMCs, live CD3+ T cells; column 'Fab multimer': Fab multimerized on Strep-Tactin PE
Endpoint Name: percentage of cells within gate

{"columns": ["Binder", "Reported Value"],
 "data": [
  ["13B8.2 Fab fragment (variable domains of murine anti-CD4 antibody 13B8.2, human CH1 gamma1 and human kappa constant domains), heavy chain fused to One-STrEP-tag (Fab, V domains shown, Expressed in the E. coli periplasm; Stained as a monomer or multimerized on Strep-Tactin PE; also called CD4 wt (13B8.2); 13B8.2 wildtype (wt) Fab fragment) VH: QVQLKQSGPGLVQPSQSLSITCTVSGFSLTTFGVHWVRQSPGKGLEWLGVIWRSGITDYNVPFMSRLSITKDNSKSQVFFKLNSLQPDDTAIYYCAKNDPGTGFAYWGQGTLVTVSA VL: DIQMTQSPASLSASVGETVTFTCRASEMIYSYLAWYQQKQGKSPQLLVHDAKTLAEGVPSRFSGGGSGTQFSLKINTLQPEDFGTYYCQHHYGNPPTFGGGTKLEIKR", "23.3%"]
]}
